Each item that follows carries a reported GI50.
Test system: CAKI-1
Protocol: NCI tumour cell line growth inhibition, 48 h
The source made the active and inactive calls. No stated cut-off is given here; in the data, active = GI50 up to about 1.1 µM and inactive = higher.

// worked examples, GI50 included
                                   compound               result
0  Oc1c(N2CCOCC2)cc(-c2cc(N3CCOCC3)c(O)c3ccccc23)c2ccccc12   2.69 µM (inactive)
1  COc1ccc(C(c2ccc(C(C)C)cc(=O)c2O)c2ccc3cccnc3c2O)cc1 (stereo not given)   1.79 µM (inactive)
2  O=C(CC1Sc2ccccc2NC1=O)Nc1ccc(Cl)cc1 (stereo not given)  > 100 µM (inactive)
3  CCCCCCc1cc2cc(-c3csc(-c4ccc(OC)cc4)n3)c(=O)oc2cc1O   6.73 µM (inactive)

Consider the record given below.
Request: Tell me its GI50 given C=CC(C)CCC(C/C=C(\C)CCCC(C)C)C(=C)CCCC(C)C (stereo not given) as the entry.
Result: > 100 µM (inactive)

* * *

System: UACC-62
Protocol: NCI tumour cell line growth inhibition, 48 h
Activity calls are given as the source filed them. Cut-off read from the data, not from the text of the source: active = GI50 up to about 1.1 µM and inactive = higher.
API: response.call in yes (1) for active, no (0) for inactive

For orientation, consider the following solved cases.
Compound	Measured target	Cat
CCc1ccc(COC(=O)C2=C(C)NC(C)=C(C(=O)OCc3ccc(CC)cn3)C2C2=COCCO2)nc1	UACC-62	no (0)
COc1cccc(-c2nc(-c3cnccn3)n(Cc3ccccc3)n2)c1	UACC-62	no (0)
COc1ccc(N(c2ccc(C#N)cc2)c2ccc(C#N)cc2)cc1	UACC-62	no (0)
O=C1c2ccccc2-c2nnc(-c3ccccc3)cc21	UACC-62	no (0)
CC(C)c1oc(=O)cc2c1C(O)C1OC(=O)C3(C)C(O)C4OC4C2(C)C13 (stereo unspecified)	UACC-62	no (0)

Request: What is the recorded call for this compound in the test? CC(=O)OCc1ccc(-c2nc(C#N)c(N)o2)o1
Result: no (0)

Request: Hi team, can someone confirm the assay call for C=CCN1C(=O)CC1N(CC=C)S(=O)(=O)c1ccc(C)cc1 (stereo unspecified) ?
Result: no (0)

Request: For COCCOCN(C(=O)C1=CCC2(CC1)OCCO2)c1ccccc1I , which call appears in the assay record?
Result: no (0)

Request: Which outcome did this test record for the compound Cc1nc2ccccc2n1CCc1nc2ccccc2[nH]1 ?
Result: no (0)

Request: What was the test verdict on COc1cc(C/C=C/c2ccccc2)c(OC)cc1O ?
Result: no (0)

Request: State the result this test recorded for CCOC(=O)C1S/C(=N\c2ccc(Cl)cc2Cl)N=C1C (stereo unspecified) .
Result: no (0)

Request: What did the test return for Nc1nc(N)nc(CC(=O)O)n1 ?
Result: no (0)

Request: How was N#CC(C#N)=Cc1ccc(Oc2ccccc2)cc1 classified in this test?
Result: no (0)

Request: Lab log entry: N#Cc1nc(COCCOCc2ccc(F)cc2)oc1N — outcome as called in the assay?
Result: no (0)

Request: Tell me the recorded outcome of this test for COc1ccc2c3c1O[C@H]1[C@@H](O)CC[C@@]4(O)[C@@H](C2)N(C)CC[C@]314 .
Result: no (0)

Request: Write down the call the test reported for this compound. Item: O=C(N/C(=C/c1ccc(Cl)cc1)c1nc2ccccc2c(=O)n1Nc1ccc([N+](=O)[O-])cc1[N+](=O)[O-])c1ccccc1
Result: no (0)

Request: Check the results log: what was the call for CC(NNC(=O)c1cc[n+]([BH2-]C#N)cc1)c1ccc(Cl)cc1Cl (stereo unspecified) ?
Result: no (0)

Request: What is the recorded call for this compound in the test? O=C1Oc2ccccc2C(=O)/C1=C/NC(=S)Nc1ccccc1
Result: yes (1)

Request: Name the outcome recorded for O=S(=O)(O)c1cc(/N=N/c2c(O)ccc3ccccc23)cc2c(S(=O)(=O)O)cccc12 in the assay.
Result: no (0)

Request: Could you please tell me the result logged for CCOC(=O)CNC(=O)C(CSCc1ccc(Br)cc1)NC(=O)CCC(N)C(=O)OCC (stereo unspecified) in this assay?
Result: no (0)

Request: Any idea what this test logged for O=C(CCc1cccc(O)c1)NCCCNC(=O)CCc1cccc(O)c1 ?
Result: no (0)

Request: For Oc1cn(-c2ccc(Cl)cc2)nc1-c1nnc(-c2ccccc2)o1 , which call appears in the assay record?
Result: no (0)

Request: Entry CCN(CC)CCCNc1ncc(C)c2c1c1ccc3c(O)cccc3c1n2C : call = ?
Result: no (0)

Request: So what was the verdict on O=C(NCCCl)O/N=C/c1cccnc1 in this test?
Result: no (0)

Request: Can you look up the reported call for Cc1nc2ccc(F)cc2c2c1CCO2 for me?
Result: no (0)

Request: Tell me the assay call for CC(=O)NNc1nc(C)c(C(/C=C/c2ccc(Cl)cc2)=N\NS(=O)(=O)c2ccc(C)cc2)s1 please.
Result: no (0)
